- run_description: Cell viability, MTT assay, with LPS treatment
- Format: cell-based, murine
- condition_summary: mouse, RAW 264.7 cells activated with LPS; RAW 264.7 cells, MTT, LPS 1 µg/mL, 24 h; mean ± SD, n = 3
- Method: In this work, all isolated compounds (1–22) were evaluated for their inhibition of nitric oxide (NO) production in RAW264.7 cells activated by lipopolysaccharide (LPS) using the Griess assay with indomethacin as a positive control (Table 3). […] To investigate whether the inhibitory activities of the active compounds were due to their cytotoxicity, the effects of the tested compounds on cell proliferation/viability were evaluated using the MTT method. […]
observed_property: CC50 at 24 h

Take a look at these entries with their results.
COC(=O)C[C@@H]1OC(=O)c2c(O)cccc21 [Compound 5, isobenzofuranone A] = > 100 µM
CC1=CC(=O)C2(C)CCCC(C)(CO)C23CC13 (centres unmarked) [Compound 3, alternaterpenoid A] = 24.9 µM
COc1cc(O)c2c(c1)C1=C(O)C(=O)C[C@@]1(C)OC2=O [Compound 7] = 20.6 µM
COc1cc(O)c2c(c1)C1(OC2=O)C(C)=CC(=O)C1O (racemic) [Compound 10, ±talaroflavone] = 27.2 µM
COc1cc(O)c2c(=O)oc3c(c2c1)[C@@H](C)CC3=O [Compound 8, dihydroaltenuenes A] = > 100 µM

Hey, quick one: what's CC50 at 24 h for each of these?
1. CC(O)C(C)OC(=O)CC1OC(=O)c2c(O)cccc21 (centres unmarked) [Compound 1, alternabenzofuran A]
2. COC(=O)C1Cc2cccc(O)c2C(=O)O1 (centres unmarked) [Compound 18, tenuissimasatin]
3. C[C@H]1CC(=O)OC[C@H]1O [Compound 22, walterolactone C]

["> 100 µM", "28.3 µM", "46.4 µM"]

###

- Tested on: NO production in RAW264.7 cells activated by lipopolysaccharide
- run_description: Inhibition of NO production in LPS-activated RAW264.7 cells (Griess assay)
- Type: cell-based, murine
- condition_summary: CC50 (MTT) / IC50 (NO production), RAW 264.7 cells
observed_property: SI, selectivity index, calculated by CC50/IC50
Numbers only.

Can you give me SI, selectivity index, calculated by CC50/IC50 for all of these, one by one?
1. C[C@H]1CC(=O)OC[C@H]1O [Compound 22, walterolactone C]
2. COc1cc(O)c2c(=O)oc3cc(CO)cc(O)c3c2c1 [Compound 15, alternariol-1’-hydroxy-9-methyl ether]

3.1
1.9

For each entry beneath this line, provide reported SI, selectivity index, calculated by CC50/IC50.
1. CC1=CC(=O)C2(C)CCCC(C)(CO)C23CC13 (stereo not shown) [Compound 3, alternaterpenoid A]
2. COc1cc(O)c2c(=O)oc3cc(O)c(C)cc3c2c1 [Compound 13, 2-methyl-9-methoxy alternariol]

1: 10.4; 2: 2.0

###

- Test system: NO production in RAW264.7 cells activated by lipopolysaccharide
- run_description: Inhibition of NO production in LPS-activated RAW264.7 cells (Griess assay)
- Type: cell-based, murine
- condition_summary: RAW 264.7 cells, LPS 1 µg/mL, 24 h, Griess assay; mean ± SD, n = 3; read-out: IC50, inhibition of LPS-induced NO production
Kindly state IC50 for each of the entries shown.
Answers are plain numbers, in µM.

COc1cc(O)c2c(=O)oc3c(O)c(O)cc(C)c3c2c1 [Compound 14, 3’-hydroxyalternariol 5-O-methyl ether] = 5.9

API: the following record is the query input.
Note to self: IC50 of `COc1cc(O)c2c(c1)C1=C(O)C(=O)C[C@@]1(C)OC2=O` with NO production in RAW264.7 cells activated by lipopolysaccharide was 5.2
